Listing: pIC50 of selected compounds
Test system: HIV-1 (NL4-3 strain)
test: Assay for inhibition of HIV replication (MT4-gag-GFP reporter cell line, wild type cell assay, Viking)
Assay type: cell-based
condition-info: Human immunodeficiency virus 1, NL43, MT4-GFP cells infected with HIV-1 NL4-3; 100% normal human serum; IP from 4-parameter dose response curve; read-out: WILD TYPE CELL ASSAY Viking IP (100% NHS)
Interpret pIC50 as the negative base-10 log of the concentration measured in mol/L.

CC1n2cc(C(=O)NCc3ccc(F)cc3F)c(=O)c(O)c2C(=O)C(C)(C)C12CCCO2 (centres unmarked) [Compound 15]	6.83
CC1(C)C(=O)c2c(O)c(=O)c(C(=O)NCc3ccc(F)cc3)cn2CC12CCCO2 (single isomer, unassigned) [Compound 10]	6.37
CC1(C)C(=O)c2c(O)c(=O)c(C(=O)NCc3ccc(F)c(Cl)c3F)cn2CC12CCCO2 (single isomer, unassigned) [Compound 8]	6.23
CC1n2cc(C(=O)NCc3ccc(F)cc3F)c(=O)c(O)c2C(=O)C(C)(C)C12CCCO2 (single isomer, unassigned) [Compound 14]	5.48

Could you share which pIC50 value was measured for CC1(C)C(=O)c2c(O)c(=O)c(C(=O)NCc3ccc(F)cc3)cn2CC12CCCO2 (centres unmarked) [Compound 11] ? 5.31

// query pIC50 value for entry CC1(C)C(=O)c2c(O)c(=O)c(C(=O)NCc3cccc(Cl)c3F)cn2CC12CCCO2 (single isomer, unassigned) [Compound 6] 6.24

Need pIC50, item CC1(C)C(=O)c2c(O)c(=O)c(C(=O)NCc3ccc(F)c(Cl)c3F)cn2CC12CCCO2 (centres unmarked) [Compound 9] 5.18

* * *

Test system: HIV-1 (NL4-3 strain)
test: Assay for inhibition of HIV replication (MT4-gag-GFP reporter cell line, wild type cell assay, Viking)
Type: cell-based
condition-info: MT4-GFP cells infected with HIV-1 NL4-3; 0% normal human serum; IP from 4-parameter dose response curve; read-out: WILD TYPE CELL ASSAY Viking IP (0% NHS)
Please note: IC50 exactly at 2 nM is false (0). Only values below 2 nM get true (1).

Solved entries:
CC1(C)C(=O)c2c(O)c(=O)c(C(=O)NCc3ccc(F)cc3F)cn2CC12CCCO2 (single isomer, unassigned) [Compound 2]	true (1)
CC1COC2(C1)Cn1cc(C(=O)NCc3ccc(F)cc3F)c(=O)c(O)c1C(=O)C2(C)C (centres unmarked) [Compound 18]	false (0)
CC1(C)C(=O)c2c(O)c(=O)c(-c3nnc(Cc4ccc(F)cc4F)s3)cn2CC12CCCO2 (centres unmarked) [Compound 13]	false (0)
CC1COC2(C1)Cn1cc(C(=O)NCc3ccc(F)cc3F)c(=O)c(O)c1C(=O)C2(C)C (centres unmarked) [Compound 17]	false (0)
CC1(C)C(=O)c2c(O)c(=O)c(C(=O)NCc3ccc(F)cc3F)cn2CC12CCCO2 (single isomer, unassigned) [Compound 1]	true (1)
CC1(C)C(=O)c2c(O)c(=O)c(-c3nnc(Cc4ccc(F)cc4F)s3)cn2CC12CCCO2 (centres unmarked) [Compound 12]	false (0)
CC1COC2(C1)Cn1cc(-c3nnc(Cc4ccc(F)cc4F)s3)c(=O)c(O)c1C(=O)C2(C)C (single isomer, unassigned)	false (0)
C/C=C1\C(=O)c2c(O)c(=O)c(C(=O)NCc3ccc(F)cc3F)cn2CC12CCOCC2	false (0)

IC50 strictly < 2 nM for this molecule? CC1COC2(C1)Cn1cc(C(=O)NCc3ccc(F)cc3F)c(=O)c(O)c1C(=O)C2(C)C (centres unmarked) [Compound 19] false (0)

* * *

The following compounds are shown together with reported IC50 values.
Test system: HIV-1 (NL4-3 strain)
test: Assay for inhibition of HIV replication (MT4-gag-GFP reporter cell line, wild type cell assay, Viking)
Format: cell-based
condition-info: MT4-GFP cells infected with HIV-1 NL4-3; 0% normal human serum; IP from 4-parameter dose response curve; read-out: WILD TYPE CELL ASSAY Viking IP (0% NHS)
Expressed in nM, but write only the number.

CC1COC2(C1)Cn1cc(C(=O)NCc3cccc(Cl)c3F)c(=O)c(O)c1C(=O)C2(C)C (single isomer, unassigned) [Compound 21]	1.3
CC1COC2(C1)Cn1cc(C(=O)NCc3cccc(Cl)c3F)c(=O)c(O)c1C(=O)C2(C)C (single isomer, unassigned) [Compound 23]	1
CC1COC2(C1)Cn1cc(C(=O)NCc3cccc(Cl)c3F)c(=O)c(O)c1C(=O)C2(C)C (single isomer, unassigned) [Compound 22]	0.8

Could you share which IC50 value was measured for CC1COC2(C1)Cn1cc(C(=O)NCc3cccc(Cl)c3F)c(=O)c(O)c1C(=O)C2(C)C (single isomer, unassigned) [Compound 20] ? 2

# IC50 lookup, item CC1(C)C(=O)c2c(O)c(=O)c(C(=O)NCc3ccc(F)cc3F)cn2CC12CCCCO2 (centres unmarked) 4.2
